Molecular target: ER-α (Homo sapiens, UniProt P03372)
Construct: endogenous in cells; host or cells: MCF-7
Sequence (P03372 1-595): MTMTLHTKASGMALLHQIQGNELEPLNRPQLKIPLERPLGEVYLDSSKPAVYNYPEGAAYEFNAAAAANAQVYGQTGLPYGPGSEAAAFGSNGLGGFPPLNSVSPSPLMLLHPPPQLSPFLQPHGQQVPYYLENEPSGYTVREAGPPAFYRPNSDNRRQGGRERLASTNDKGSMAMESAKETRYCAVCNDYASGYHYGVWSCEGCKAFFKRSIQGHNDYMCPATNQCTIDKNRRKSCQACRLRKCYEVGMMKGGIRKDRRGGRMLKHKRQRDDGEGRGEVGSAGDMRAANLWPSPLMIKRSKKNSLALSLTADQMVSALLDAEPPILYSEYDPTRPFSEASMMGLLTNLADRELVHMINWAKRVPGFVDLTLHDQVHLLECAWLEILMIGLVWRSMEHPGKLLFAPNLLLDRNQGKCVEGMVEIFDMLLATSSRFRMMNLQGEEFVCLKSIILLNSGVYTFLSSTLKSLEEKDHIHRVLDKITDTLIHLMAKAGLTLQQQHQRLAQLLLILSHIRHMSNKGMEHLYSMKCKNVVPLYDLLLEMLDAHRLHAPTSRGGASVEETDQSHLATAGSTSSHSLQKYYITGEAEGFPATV
Experiment: Breast Cancer Cell ER-α In Cell Western Assay (SP1)
Type: cell-based
Conditions: MCF7; MCF-7 cells, 4 or 24 hr post compound addition, SP1 antibody; read-out: ER-α In Cell Western Assay (SP1) Max Response
Reported Emax values for a set of compounds

COc1ccc(/C(=C(\c2ccc(/C=C/C(=O)O)cc2)c2ccc(-c3cncs3)cc2)C2CCC2)c(C)c1; ≥ 40%
O=C(O)/C=C/c1ccc(/C(=C(\c2ccc(F)cc2Cl)C2CCC2)c2ccc(-c3nn[nH]n3)cc2)cc1; < 40%

Param readout= Emax; system= ER-α (Homo sapiens, UniProt P03372); entry= CC1CCN(c2ccc(/C(=C(/c3ccccc3)C3CCC3)c3ccc(/C=C/C(=O)O)cc3)cc2)CC1 ; returns value.
≥ 40%

Report Emax for O=C(O)/C=C/c1ccc(/C(=C(\c2ccccc2)C2CCC2)c2ccc(-c3cn[nH]c3)cc2)cc1 tested on ER-α (Homo sapiens, UniProt P03372).
≥ 40%

What is its Emax for ER-α (Homo sapiens, UniProt P03372)? Entry: O=C(O)/C=C/c1ccc(/C(=C(\c2ncc(C(F)(F)F)cc2Cl)C2CCC2)c2ccc(-c3cncs3)cc2)cc1
≥ 40%

Record lookup: for ER-α (Homo sapiens, UniProt P03372), what Emax belongs to N#Cc1cc(Cl)ccc1/C(=C(\c1ccc(/C=C/C(=O)O)cc1)c1ccc(-c2cn[nH]c2)cc1)C1CCC1 ?
≥ 40%

# returns recorded Emax (system: ER-α (Homo sapiens, UniProt P03372)) for CC/C(=C(/c1ccc(/C=C/C(=O)O)cc1)c1ccc(N2CCOCC2)cc1)c1ccccc1
≥ 40%
